This collection of values is drawn from patent US20170306005A1.

Target: T1, mouse tenascin-C rCd4-His-FBG (rat; mouse, UniProt P05540 207-392, limits assumed)
T1 construct: domain: domains 3 and 4; C-terminal FBG fusion; biotinylated in the ELISA screen; also called Mu TNC; mouse TNC rCd4-His-FBG; not shown: 6His tag
T1 sequence (chain (part 1 of 2)): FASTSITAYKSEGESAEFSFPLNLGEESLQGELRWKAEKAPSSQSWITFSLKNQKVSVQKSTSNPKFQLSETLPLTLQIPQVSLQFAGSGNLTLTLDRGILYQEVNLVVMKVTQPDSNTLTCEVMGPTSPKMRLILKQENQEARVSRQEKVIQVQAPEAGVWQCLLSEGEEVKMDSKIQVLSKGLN
T1 sequence (chain (part 2 of 2)): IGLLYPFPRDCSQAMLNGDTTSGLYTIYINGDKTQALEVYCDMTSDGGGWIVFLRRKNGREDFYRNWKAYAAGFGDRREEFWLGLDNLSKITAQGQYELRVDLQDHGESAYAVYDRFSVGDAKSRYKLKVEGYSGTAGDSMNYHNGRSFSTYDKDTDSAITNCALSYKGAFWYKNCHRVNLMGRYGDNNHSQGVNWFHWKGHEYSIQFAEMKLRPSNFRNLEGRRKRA
Assay: SPR, captured purified IgG4, 37 C
Experimental: Detailed kinetic parameters were evaluated for the 9 prioritised IgG4 antibodies. Binding characteristics were determined for interaction with human, rat and dog TNC rCD4-His-FBG, and human TNR rCD4-His-FBG. […] As before, kinetic parameters were determined by reference cell subtraction and fitting the sensogram experimental data assuming a 1:1 interaction using BIAevaluation software (GE, BR-1005-97).
assay.readout: koff (s⁻¹)
Give the value, in units of s⁻¹, as a plain number.

| binder | unit.abbrev | koff |
| --- | --- | --- |
| 160_01_A4 human IgG4 (antibody, V domains shown, human IgG4 with hinge S241P; also called Antibody 160 01 A4 (derived from 2A5)) VH: EVRLVQSGAEVKKPGASVKVSCKVSGYTLTELSMHWVRQAPGKGLEWMGGFDPEDGETIYAQKFQGRVTMTEDTSTDTAYMELSSLRSEDTAVYYCATAQKETLGNAIWGQGTLVTVSS VL: DIQMTQSPASLPTSVGDRVTITCRASQYIQGFLNWYQQKPGKAPRLLIYAASTLQDGVPSRFSGSGYGTDFTLTISSLQPEDFATYYCQQSYSTPWTFGQGTKVEIKR | s⁻¹ | 0.000146 |
| 2A5 human IgG4 (antibody, V domains shown, human IgG4 with hinge S241P; also called 2A5 parent) VH: EVRLVQSGAEVKKPGASVKVSCKVSGYTLTELSMHWVRQAPGKGLEWMGGFDPEDGETIYAQKFQGRVTMTEDTSTDTAYMELSSLRSEDTAVYYCATAQKETYALTYWGQGTLVTVSS VL: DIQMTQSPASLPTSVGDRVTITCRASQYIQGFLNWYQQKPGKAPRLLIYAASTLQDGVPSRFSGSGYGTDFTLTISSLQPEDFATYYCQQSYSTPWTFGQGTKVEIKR | s⁻¹ | 0.0106 |
| B12 human IgG4 (antibody, V domains shown, human IgG4 with hinge S241P; also called B12 parent; B12-hIgG4) VH: QVQLVESGGGLVQPGRSLRLSCAASGFTFDDYAMHWVRQAPGKGLEWVSGISGSGGSTYYADSVKGRFTISRDNAKNSLYLQMNSLRAEDTALYYCAKDISAVPDTFDIWGQGTMVTVSS VL: DIQMTQSPASLPTPVGDRVTITCRASQYIQGFLNWYQQKPGKAPKLLIYDASNLETGVPSRFSGSGSGTDFTLTISSLQPEDFATYYCQQSYSTPQTFGQGTKVDIKR | s⁻¹ | 0.00138 |

Consider now this further binder.
# input Value lookup for koff; key = 165_13_C3 human IgG4 (antibody, V domains shown, also called IgG4 C3; C3 IgG4 MAb) VH: QVQLVESGGGLVQPGRSLRLSCAASGFTFDDYAMHWVRQAPGKGLEWVSGISGSGGSTYYADSVKGRFTISRDNAKNSLYLQMNSLRAEDTALYYCAKSYQSDEDAFDIWGQGTMVTVSS VL: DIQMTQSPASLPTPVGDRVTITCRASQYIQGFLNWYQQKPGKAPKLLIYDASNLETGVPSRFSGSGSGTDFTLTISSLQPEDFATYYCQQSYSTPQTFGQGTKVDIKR
# output 0.000445
